Test system: PC-3 prostate
method-notes: NCI tumour cell line growth inhibition, 48 h
quantity-measured: GI50

Below: 3 compounds and their reported GI50.
| structure-smiles-string | GI50 |
| --- | --- |
| CCN1CCN(c2ccc(NC(=O)Nc3nc4ccc(-c5ccccc5OC)cc4s3)cc2)CC1 | 1790 nM |
| CCOC(=O)N1CCC(N=C2CSc3nnc(-c4cc(C(F)(F)F)cc(C(F)(F)F)c4)n3N2)CC1 | 2200 nM |
| Cc1[nH]nc(C(F)(F)F)c1Cc1sc2c(c1C(=O)N1C[C@](C)(O)CO1)c(=O)n(C)c(=O)n2C(C)C | > 100000 nM |

Query :: Find the recorded GI50 belonging to "Cc1cc(OCc2ccc(C(F)(F)F)cc2)c2c(c1)C(=O)C=C(NCCN1CCCC1)C2=O" and report it.
Result :: 5360 nM

Query :: Further, for "Cc1nnc(N/N=C/c2ccc([N+](=O)[O-])o2)[nH]c1=O" ?
Result :: 512 nM

From: PubChem BioAssay (NCI)
